Species on record: Homo sapiens
assay.name: Inhibition of ADP-induced human platelet aggregation
Format: functional, organism-based
pIC50: −log10 of the molar value.
Reported pIC50 values for the following compounds.
assay.readout: pIC50

record_smiles=O=C(O)CCCCCCCCn1cc(-c2ccccc2)cn1 bound_operator=< quantitative_result=3.98
record_smiles=O=C(O)CCCCCCCCn1ncc(-c2ccccc2)c1-c1ccccc1 bound_operator== quantitative_result=5.24
record_smiles=CC(C)(C)OC(=O)COCCCCCCn1nc(-c2ccccc2)c(-c2ccccc2)c1-c1ccccc1 bound_operator=< quantitative_result=4.21
record_smiles=CS(=O)(=O)NC(=O)CCCCCCCCn1nc(-c2ccccc2)c(-c2ccccc2)c1-c1ccccc1 bound_operator== quantitative_result=5.23
record_smiles=O=C(O)CCCCCCn1ncc(-c2ccccc2)c1-c1ccccc1 bound_operator=< quantitative_result=4.04
